- Tested target: Factor IXa (Homo sapiens (Human), UniProt P00740)
- Sequence (P00740 227-461): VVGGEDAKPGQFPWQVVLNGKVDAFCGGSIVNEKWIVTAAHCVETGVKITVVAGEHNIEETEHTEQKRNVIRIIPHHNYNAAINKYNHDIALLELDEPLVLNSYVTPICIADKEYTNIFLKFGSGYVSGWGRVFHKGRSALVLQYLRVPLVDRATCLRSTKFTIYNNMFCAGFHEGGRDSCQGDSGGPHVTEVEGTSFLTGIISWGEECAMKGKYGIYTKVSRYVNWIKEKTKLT
- Sequence (P00740 47-191 partner): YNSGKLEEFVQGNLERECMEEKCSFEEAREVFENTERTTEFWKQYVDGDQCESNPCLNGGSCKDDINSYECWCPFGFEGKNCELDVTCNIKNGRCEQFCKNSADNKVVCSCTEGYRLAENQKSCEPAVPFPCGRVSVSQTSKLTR
- Method summary: Determination of inhibitory activity against Factor IXa (cleavage of fluorescent peptide CH3SO2-D-CHG-Gly-Arg-AFC)
- Type: biochemical
- Condition summary: read-out: hFIXa IC50
- Method: Determination of Inhibitory Activity Against Factor IXa Formation of a clot to stem bleeding at a site of blood vessel injury involves the coordinated activity of a group of plasma proteins that initiate and propagate fibrin formation and subsequently protect fibrin from premature degradation. […] The activity of Factor IXa is measured by monitoring the cleavage of the fluorescent peptide, CH3SO2-D-CHG-Gly-Arg-AFC.AcOH (“CHG” is cyclohexyl-glycine and “AFC” is trifluoro aminomethyl coumarin). […]
pIC50: −log10 of the molar value.
As shown below, each of these molecules has a reported pIC50 value.
Readout label: pIC50

molecule="Cc1cc2nc(C(CNC(=O)c3ccc(-n4cnnc4)cc3Cl)c3cccc(F)c3)oc2cc1C (stereo not shown)" data_value=7.14
molecule="Cc1cc2nc(C(CNC(=O)c3c(Cl)cc(-c4cnc(OCCF)nc4)cc3Cl)c3ccccc3)[nH]c2cc1C (stereo not shown)" data_value=6.42
molecule="COC(=O)Cc1cccc(C(CNC(=O)c2c(Cl)cc(-n3cnc(C)n3)cc2Cl)c2nc3cc(OC)c(Cl)cc3[nH]2)c1 (stereo not shown)" data_value=8.21
molecule="Cc1cc2nc(C(CNC(=O)c3c(Cl)cc(-c4ccnc(CO)c4)cc3Cl)c3ccccc3)[nH]c2cc1C (stereo not shown)" data_value=7.28
